B1: INTS4 (parent)
chain: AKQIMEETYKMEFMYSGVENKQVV

Variants of: B1
Assay: protein stability index of a GFP-peptide fusion (GPS, HEK-293T) (PSI 1-6); higher = more stable;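 also: lentivirally expressed fusions sorted by FACS into six bins by GFP to DsRed ratio, PSI derived from sequencing read proportions per bin multiplied by bin number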
Details: c terminus: a fixed tail appended

| polymer.sequence | protein stability index |
| --- | --- |
| AKQIMEETYKMEFMYPGVENKQVV [S16P] | 2 |
| GKQIMEETYKMEFMYSGVENKQVV [A1G] | 2.39 |
| AKQIMEETYRMEFMYSGVENKQVV [K10R] | 3.13 |
| AKQIMEETYKMYFMYSGVENKQVV [E12Y] | 2.44 |
| AKYIMEETYKMEFMYSGVENKQVV [Q3Y] | 1.84 |
| AKQIMEETYKFEFMYSGVENKQVV [M11F] | 2.26 |
| AKQIMSETYKMEFMYSGVENKQVV [E6S] | 2.47 |
| AKQIMEETYLMEFMYSGVENKQVV [K10L] | 1.96 |
| AKQVMEETYKMEFMYSGVENKQVV [I4V] | 2.42 |
| AKQIMEETYKMEFMYKGVENKQVV [S16K] | 1.7 |
| AKQIMEETYKMFFMYSGVENKQVV [E12F] | 1.95 |
| AKQIMEETMKMEFMYSGVENKQVV [Y9M] | 3.43 |
| AKQIMEETYKVEFMYSGVENKQVV [M11V] | 1.9 |
| AKQIMEETYKMEFMYSGVENSQVV [K21S] | 2.51 |
| AKQIMEETYKMEFMYSGVDNKQVV [E19D] | 1.78 |
| AKQIMEETYKMEFMYSGVENKQVW [V24W] | 2.33 |
| VKQIMEETYKMEFMYSGVENKQVV [A1V] | 2.07 |
| AKQIMEETYKMEFMYSGVENKQCV [V23C] | 1.6 |
| AKQMMEETYKMEFMYSGVENKQVV [I4M] | 1.9 |
| AKQIMEETYKSEFMYSGVENKQVV [M11S] | 2.37 |
| IKQIMEETYKMEFMYSGVENKQVV [A1I] | 1.42 |
| AKQIMEETYKMEFMYSGVENKQEV [V23E] | 1.97 |
